src = the supplement of paper PMC10567573

B1: ESRRA (parent)
chain: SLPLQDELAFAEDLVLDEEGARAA

# Variants of: B1
# assay_text: protein stability index of a GFP-peptide fusion (GPS, HEK-293T) (PSI 1-6); higher = more stable;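 also: lentivirally expressed fusions sorted by FACS into six bins by GFP to DsRed ratio, PSI derived from sequencing read proportions per bin multiplied by bin number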
# condition_context: c terminus: a fixed tail appended
readout_type: protein stability index
Please reply with the number alone, leaving off any unit.

Prompt line: Param item = A24Y ; retrieve measured protein stability index.
Response line: 3

Prompt line: Repeat for the following variant: A24I
Response line: 2.92

Prompt line: S1I , same question.
Response line: 3.03

Prompt line: What about this variant? A21T
Response line: 3.75

Prompt line: Now give it for L2D too.
Response line: 5.55

Prompt line: Then this variant: E7K
Response line: 4.84

Prompt line: Would you mind doing D6H as well?
Response line: 2.45

Prompt line: Now consider D6P and answer again.
Response line: 4.04

Prompt line: Follow-up item: L4V
Response line: 5.02

Prompt line: Then what about the variant F10I ?
Response line: 3.63

Prompt line: Now this one: A21R
Response line: 3.41

Prompt line: Then this variant: L8M
Response line: 2.99

Prompt line: Same question for L14E please.
Response line: 4.62

Prompt line: Another: L16P
Response line: 5.75

Prompt line: And D17S ?
Response line: 2.69

Prompt line: Next variant up: P3C
Response line: 4.78

Prompt line: // query: L2C
Response line: 2.32

Prompt line: Cool, now D17G
Response line: 2.15

Prompt line: Follow-up item: E19L
Response line: 2.15

Prompt line: V15P , same question.
Response line: 5.37

Prompt line: Then this variant: S1M
Response line: 2.66

Prompt line: Moving on to D13S
Response line: 3.37

Prompt line: Also need A24E , thanks.
Response line: 3.5

Prompt line: Further, for L4S ?
Response line: 5.39

Prompt line: Next entry: L14V
Response line: 4.41

Prompt line: Query A9Y next
Response line: 4.19

Prompt line: Please answer likewise for D13M
Response line: 3.83

Prompt line: Next variant up: D17I
Response line: 2.45

Prompt line: How about this variant: E18T
Response line: 2.79

Prompt line: Thanks! And P3H ?
Response line: 4.45

Prompt line: Request: L14C
Response line: 3.46

Prompt line: A23H ?
Response line: 2.95

Prompt line: Moving on to the next variant: A9L
Response line: 3.45

Prompt line: Consider next the variant S1L in the same way.
Response line: 2.26

Prompt line: Next variant up: E12H
Response line: 4.72

Prompt line: // same read-out, input: A23T
Response line: 3.08

Prompt line: Then D13K ?
Response line: 3.81

Prompt line: Quick one: A11V
Response line: 5.07

Prompt line: Param item: V15Q
Response line: 5.49

Prompt line: Request: F10P
Response line: 5.69

Prompt line: Next up: A21C
Response line: 3.01

Prompt line: Another variant: E12Y
Response line: 4.2

Prompt line: Next entry: A24T
Response line: 3.94

Prompt line: Same lookup for L8Y , please.
Response line: 4.77

Prompt line: Try Q5V next.
Response line: 3.64

Prompt line: Let us now turn to A11S
Response line: 4.13
